test system: Candida albicans; assay: Antifungal activity against fluconazole-resistant Candida albicans 18 after 24 hrs; assay type: functional
MIC: recorded values
assay-readout: MIC (µM)

>  <molecule>
CN(C/C=C/C#CC(C)(C)C)Cc1cccc2ccccc12

>  <assay-readout>
MIC

>  <unit-abbreviation>
µM

>  <op>
=

>  <measured-number>
8

$$$$
>  <molecule>
CCCCCCCCCCNC1CCc2c(O)cccc2C1 (configuration not stated)

>  <assay-readout>
MIC

>  <unit-abbreviation>
µM

>  <op>
=

>  <measured-number>
32

$$$$
>  <molecule>
CCCCCCCCCCNC1CCc2ccc(OC)cc2C1 (configuration not stated)

>  <assay-readout>
MIC

>  <unit-abbreviation>
µM

>  <op>
=

>  <measured-number>
4

$$$$
>  <molecule>
CCCCCCCCCNC1CCc2cc(O)ccc2C1 (configuration not stated)

>  <assay-readout>
MIC

>  <unit-abbreviation>
µM

>  <op>
=

>  <measured-number>
4

$$$$
>  <molecule>
CCCCCCCCNC1CCc2cc(OC)ccc2C1 (configuration not stated)

>  <assay-readout>
MIC

>  <unit-abbreviation>
µM

>  <op>
=

>  <measured-number>
8

$$$$
>  <molecule>
C[C@@H]1[C@H](O)[C@@H](C)/C=C/C=C/C=C/C=C/C=C/C=C/C=C/[C@H](O[C@@H]2O[C@H](C)[C@@H](O)[C@H](N)[C@@H]2O)C[C@@H]2O[C@](O)(C[C@@H](O)C[C@@H](O)[C@H](O)CC[C@@H](O)C[C@@H](O)CC(=O)O[C@H]1C)C[C@H](O)[C@H]2C(=O)O

>  <assay-readout>
MIC

>  <unit-abbreviation>
µM

>  <op>
=

>  <measured-number>
2

$$$$
>  <molecule>
OC(Cn1cncn1)(Cn1cncn1)c1ccc(F)cc1F

>  <assay-readout>
MIC

>  <unit-abbreviation>
µM

>  <op>
>

>  <measured-number>
64

$$$$
>  <molecule>
CCCCCCCCNC1CCc2cc(O)ccc2C1 (configuration not stated)

>  <assay-readout>
MIC

>  <unit-abbreviation>
µM

>  <op>
=

>  <measured-number>
4

$$$$
>  <molecule>
CCCCCCCCCCNC1CCc2cccc(O)c2C1 (configuration not stated)

>  <assay-readout>
MIC

>  <unit-abbreviation>
µM

>  <op>
=

>  <measured-number>
16

$$$$
>  <molecule>
CCC(C)n1ncn(-c2ccc(N3CCN(c4ccc(OCC5COC(Cn6cncn6)(c6ccc(Cl)cc6Cl)O5)cc4)CC3)cc2)c1=O (configuration not stated)

>  <assay-readout>
MIC

>  <unit-abbreviation>
µM

>  <op>
>

>  <measured-number>
64

$$$$
>  <molecule>
CCCCCCCCCCNC1CCc2c(cccc2OC)C1 (configuration not stated)

>  <assay-readout>
MIC

>  <unit-abbreviation>
µM

>  <op>
=

>  <measured-number>
4

$$$$
>  <molecule>
CCCCCCCCCNC1CCc2c(cccc2OC)C1 (configuration not stated)

>  <assay-readout>
MIC

>  <unit-abbreviation>
µM

>  <op>
=

>  <measured-number>
16

$$$$

* * *

tested on: Cryptococcus neoformans; assay: Antifungal activity against Cryptococcus neoformans after 72 hrs; assay type: functional
assay-readout: log10 MIC (log10 of the value in µM)

>  <molecule>
Oc1ccc2c(c1)CC(Nc1ccccc1)CC2 (stereo not drawn)

>  <log10 MIC>
1.20

$$$$
>  <molecule>
CCCCCCCCCCCCCCNC1CCc2cccc(O)c2C1 (stereo not drawn)

>  <log10 MIC>
1.51

$$$$
>  <molecule>
CCCCCCCCCCN1CCc2cc(O)c(O)cc2C1

>  <log10 MIC>
0.00

$$$$
>  <molecule>
Oc1ccc2c(c1)CCC(Nc1ccccc1)C2 (stereo not drawn)

>  <log10 MIC>
1.81

$$$$
>  <molecule>
CCCCCCCCCCCCNC1CCc2cc(OC)ccc2C1 (stereo not drawn)

>  <log10 MIC>
0.60

$$$$
>  <molecule>
CCCCCCCCNC1CCc2ccc(O)cc2C1 (stereo not drawn)

>  <log10 MIC>
1.20

$$$$

* * *

system: Aspergillus fumigatus; test: Antifungal activity against Aspergillus fumigatus; assay type: functional
// MIC lookup, one value per entry

>  <compound>
NC1CCc2c(O)cccc2C1 (stereo unspecified)

>  <MIC>
> 64 µM

$$$$
>  <compound>
CCCCCCCCCCCCCCNC1CCc2cccc(OC)c2C1 (stereo unspecified)

>  <MIC>
> 64 µM

$$$$
>  <compound>
CCCCCCCCCCNC1CCc2cc(OC)ccc2C1 (stereo unspecified)

>  <MIC>
> 64 µM

$$$$
>  <compound>
CCCCCCCCCCCCCCCCCCNC1CCc2cccc(OC)c2C1 (stereo unspecified)

>  <MIC>
> 64 µM

$$$$
>  <compound>
CCCCCCCCCCCCNC1CCc2ccc(O)cc2C1 (stereo unspecified)

>  <MIC>
> 64 µM

$$$$
>  <compound>
Oc1ccc2c(c1)CCC(Nc1ccc(Cl)cc1)C2 (stereo unspecified)

>  <MIC>
64 µM

$$$$
>  <compound>
CCCCCCCCCCCCNC1CCc2c(cccc2OC)C1 (stereo unspecified)

>  <MIC>
> 64 µM

$$$$
>  <compound>
COc1cccc2c1CC(Nc1ccccc1)CC2 (stereo unspecified)

>  <MIC>
> 64 µM

$$$$
>  <compound>
COc1cccc2c1CCC(Nc1ccccc1)C2 (stereo unspecified)

>  <MIC>
> 64 µM

$$$$
>  <compound>
CCCCCCCCCCCCCCCCCCNC1CCc2c(cccc2OC)C1 (stereo unspecified)

>  <MIC>
> 64 µM

$$$$
>  <compound>
CCCCCCCCCNC1CCc2cccc(OC)c2C1 (stereo unspecified)

>  <MIC>
16 µM

$$$$

* * *

Quick list: MIC per entry.
tested on: Aspergillus fumigatus; assay: Antifungal activity against Aspergillus fumigatus; format: functional

>  <compound>
CCCCNC1CCc2ccc(O)cc2C1 (centres undefined)

>  <MIC>
> 64 µM

$$$$
>  <compound>
CCCCCCCCCCN1CCc2cc(O)c(O)cc2C1

>  <MIC>
16 µM

$$$$
>  <compound>
CCCCCCCCCCCCNC1CCc2cccc(OC)c2C1 (centres undefined)

>  <MIC>
32 µM

$$$$
>  <compound>
CCCCCCCCCNC1CCc2ccc(O)cc2C1 (centres undefined)

>  <MIC>
64 µM

$$$$
>  <compound>
COc1ccc(NC2CCc3cccc(O)c3C2)cc1 (centres undefined)

>  <MIC>
> 64 µM

$$$$
>  <compound>
CCCCCCCCCCNC1CCc2ccc(OC)cc2C1 (centres undefined)

>  <MIC>
16 µM

$$$$
>  <compound>
Oc1ccc2c(c1)CCC(Nc1ccccc1)C2 (centres undefined)

>  <MIC>
> 64 µM

$$$$
>  <compound>
CCCCCCCCCNC1CCc2cc(OC)ccc2C1 (centres undefined)

>  <MIC>
64 µM

$$$$
>  <compound>
COc1ccc(NC2CCc3cc(O)ccc3C2)cc1 (centres undefined)

>  <MIC>
> 64 µM

$$$$
>  <compound>
CCCCCCCCCNC1CCc2ccc(OC)cc2C1 (centres undefined)

>  <MIC>
16 µM

$$$$
>  <compound>
COc1ccc2c(c1)CCC(NCc1ccccc1)C2 (centres undefined)

>  <MIC>
> 64 µM

$$$$
>  <compound>
Oc1cccc2c1CCC(NCc1ccccc1)C2 (centres undefined)

>  <MIC>
> 64 µM

$$$$
>  <compound>
CCCCCCCCCCCCNC1CCc2cc(OC)ccc2C1 (centres undefined)

>  <MIC>
> 64 µM

$$$$
>  <compound>
CCCCCCCCNC1CCc2ccc(O)cc2C1 (centres undefined)

>  <MIC>
> 64 µM

$$$$
>  <compound>
COc1ccc2c(c1)CC(Nc1ccccc1)CC2 (centres undefined)

>  <MIC>
> 64 µM

$$$$
>  <compound>
CCCCCCCCCCCCNC1CCc2cc(O)ccc2C1 (centres undefined)

>  <MIC>
> 64 µM

$$$$
>  <compound>
COc1ccc2c(c1)CCC(Nc1ccccc1)C2 (centres undefined)

>  <MIC>
> 64 µM

$$$$
>  <compound>
NC1CCc2cccc(O)c2C1 (centres undefined)

>  <MIC>
> 64 µM

$$$$
>  <compound>
CCCCCCCCCCCCCCNC1CCc2cc(O)ccc2C1 (centres undefined)

>  <MIC>
> 64 µM

$$$$
>  <compound>
CCCCCCCCCCCCNC1CCc2c(O)cccc2C1 (centres undefined)

>  <MIC>
> 64 µM

$$$$
>  <compound>
COc1ccc(NC2CCc3ccc(O)cc3C2)cc1 (centres undefined)

>  <MIC>
> 64 µM

$$$$
>  <compound>
CCCCCCCCCCCCCCCCCCNC1CCc2ccc(O)cc2C1 (centres undefined)

>  <MIC>
> 64 µM

$$$$
>  <compound>
CCCCCCCCCNC1CCc2cccc(O)c2C1 (centres undefined)

>  <MIC>
16 µM

$$$$
>  <compound>
CCCCCCCCCCCCCCNC1CCc2ccc(OC)cc2C1 (centres undefined)

>  <MIC>
> 64 µM

$$$$
>  <compound>
CCCCCCCCCNC1CCc2cc(O)ccc2C1 (centres undefined)

>  <MIC>
32 µM

$$$$
>  <compound>
CCCCNC1CCc2cccc(OC)c2C1 (centres undefined)

>  <MIC>
64 µM

$$$$
>  <compound>
CCCCNC1CCc2c(O)cccc2C1 (centres undefined)

>  <MIC>
> 64 µM

$$$$
>  <compound>
CCCCCCCCCCCCCCNC1CCc2c(cccc2OC)C1 (centres undefined)

>  <MIC>
> 64 µM

$$$$
>  <compound>
COc1ccc2c(c1)CC(NCc1ccccc1)CC2 (centres undefined)

>  <MIC>
> 64 µM

$$$$
